Source of measurements: paper PMC10786891

# Measurement Target: T1, EsCas13d, nuclease-dead (Eubacterium siraeum, UniProt B0MS50, R295A;H300A;R849A;H854A)
# T1 sequence: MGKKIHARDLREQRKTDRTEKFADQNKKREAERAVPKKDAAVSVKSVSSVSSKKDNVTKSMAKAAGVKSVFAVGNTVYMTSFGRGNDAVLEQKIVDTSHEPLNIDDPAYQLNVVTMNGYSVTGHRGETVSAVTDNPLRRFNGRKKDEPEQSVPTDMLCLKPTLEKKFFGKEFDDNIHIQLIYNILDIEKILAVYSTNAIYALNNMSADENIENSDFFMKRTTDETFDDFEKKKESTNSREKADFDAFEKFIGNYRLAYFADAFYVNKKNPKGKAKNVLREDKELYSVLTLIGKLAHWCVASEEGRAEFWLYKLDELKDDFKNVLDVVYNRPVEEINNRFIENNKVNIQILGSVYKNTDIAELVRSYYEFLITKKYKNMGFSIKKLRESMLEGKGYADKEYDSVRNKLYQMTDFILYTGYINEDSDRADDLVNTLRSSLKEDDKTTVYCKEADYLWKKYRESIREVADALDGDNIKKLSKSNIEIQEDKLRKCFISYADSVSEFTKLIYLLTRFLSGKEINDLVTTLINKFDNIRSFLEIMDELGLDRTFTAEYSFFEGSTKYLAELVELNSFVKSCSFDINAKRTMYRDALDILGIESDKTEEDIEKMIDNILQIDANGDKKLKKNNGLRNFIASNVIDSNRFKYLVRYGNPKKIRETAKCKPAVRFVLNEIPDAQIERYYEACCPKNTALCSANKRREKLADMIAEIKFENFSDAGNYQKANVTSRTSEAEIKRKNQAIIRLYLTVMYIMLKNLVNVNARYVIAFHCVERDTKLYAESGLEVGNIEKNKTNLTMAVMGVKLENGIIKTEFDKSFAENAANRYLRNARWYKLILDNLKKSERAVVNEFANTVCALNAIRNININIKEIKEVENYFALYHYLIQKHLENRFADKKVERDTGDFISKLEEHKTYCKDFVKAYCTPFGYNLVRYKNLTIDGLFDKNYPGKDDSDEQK
# Method Summary: crRNA (strand 1, pre-loaded); Mg2+; 40 mM Tris-HCl pH 7.5, 150 mM NaCl, 6 mM MgCl2, 1 mM DTT, 0.1% Tween-20, 0.2 mg/ml BSA; 25 C; 10 min per concentration, then washed
# Condition Description: tags: His6-TwinStrep-SUMO cleaved; N-terminal SNAP kept (SNAP-Surface 488); label: 3' end held by stalled T7 RNA polymerase
pKd: −log10 of the molar value.
Kindly return Criterion met if reported pKd is no lower than 8; return Criterion not met if it is lower.

A selection of reference data follows.
Binder	Assigned Class
target 1 insG 3' of 21,insA 3' of 7 (mixed) RNA 1: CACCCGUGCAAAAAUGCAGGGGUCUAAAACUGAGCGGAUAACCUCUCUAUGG RNA 2: GGGAAUGGAUCCACAUCUACGAAUUCGUACCGAUAGAGAGGUUAUCACGCUCACCGAGAUCGGAAGAGCACACGU	Criterion not met
target 1 MT 5'PFS UCG 3'PFS UUA (mixed) RNA 1: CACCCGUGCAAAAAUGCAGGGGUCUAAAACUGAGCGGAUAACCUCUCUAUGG RNA 2: GGGAAUGGAUCCACAUCUACGAAUUCUCGCCAUAGAGAGGUUAUCCGCUCAUUAAGAUCGGAAGAGCACACGU	Criterion not met
target 2 MT 5'PFS ACC 3'PFS UAG (mixed) RNA 1: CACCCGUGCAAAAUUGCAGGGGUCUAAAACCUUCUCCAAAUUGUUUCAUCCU RNA 2: GGGAAUGGAUCCACAUCUACGAAUUCACCAGGAUGAAACAAUUUGGAGAAGUAGAGAUCGGAAGAGCACACGU	Criterion met
target 3 insA 3' of 8,insG 3' of 7 (mixed) RNA 1: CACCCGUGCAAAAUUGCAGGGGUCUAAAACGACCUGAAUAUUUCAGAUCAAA RNA 2: GGGAAUGGAUCCACAUCUACGAAUUCGUUUUUGAUCUGAAAUAUAUGCAGGUCUGCAGAUCGGAAGAGCACACGU	Criterion not met

In the following, a different binder is considered.
Exercise: pKd >= 8 for target 2 MT 5'PFS CUU 3'PFS CGC (mixed) RNA 1: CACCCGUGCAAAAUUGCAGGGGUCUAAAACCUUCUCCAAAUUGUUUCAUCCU RNA 2: GGGAAUGGAUCCACAUCUACGAAUUCCUUAGGAUGAAACAAUUUGGAGAAGCGCAGAUCGGAAGAGCACACGU ?
Key: Criterion met
